Source: PubChem BioAssay (NCI)

Each entry below carries its recorded TGI.
Tested on: ACHN renal
ASSAY_REMARKS: NCI tumour cell line growth inhibition, 48 h
MEASUREMENT_TYPE: TGI

                            molecule_smiles     result
0      C1CC2=C(C1)[Se]C(=C1Sc3nsnc3S1)[Se]2   > 100 µM
1                     N#Cc1cc(C#N)c(Cl)nc1N    > 10 µM
2  O=C(COc1ccc(OCC(=O)N2C(=O)CC(=O)N(c3ccccc3)C2=S)cc1)N1C(=O)CC(=O)N(c2ccccc2)C1=S   > 100 µM
3  C=C(C)[C@@H]1CC[C@]2(C(=O)O)CC[C@]3(C)[C@H](CC[C@@H]4[C@@]5(C)CC(=O)C(C)(C)[C@@H]5CC[C@]43C)[C@@H]12    > 25 µM
4                                 CCCC(=O)O   14500 µM
5  Cc1nc2ccc(CN(C)c3ccc(C(=O)N[C@@H](CCC(=O)O)C(=O)O)s3)cc2c(=O)[nH]1   > 100 µM
6                                O=C(O)CCCl  > 5000 µM
